# Test system: NCI-H522
# PROCEDURE_SUMMARY: NCI tumour cell line growth inhibition, 48 h
Calls of active or inactive are those of the source. Cut-off read from the data, not from the text of the source: active = GI50 up to about 1.1 µM and inactive = higher.
Choose the fitting class; nothing outside active, inactive is accepted.

The following compounds have reported results that may help.
- COMPOUND: "C=C(C)c1cc(C(C)(C)C)cc(C(=C)C)c1S(C)(=O)=O"
  CATEGORY: "inactive"
- COMPOUND: "CC(=O)C1C(=O)C(=O)N(CCN2C(=O)C(=O)C(C(C)=O)C2=O)C1=O (stereo unspecified)"
  CATEGORY: "inactive"
- COMPOUND: "COc1c(C2=NC(C(C)C)CO2)ccc2ccccc12 (stereo unspecified)"
  CATEGORY: "inactive"
- COMPOUND: "COc1ccc2c(c1)CCCN1Cc3cc(OC)c(OC)cc3CC21 (stereo unspecified)"
  CATEGORY: "inactive"
- COMPOUND: "O=S(=O)(O)Nc1ccc(-c2nc3ccccc3s2)cc1Cl"
  CATEGORY: "inactive"

Status in this test for O=C(/C(=C/c1ccccc1)c1ccccc1)N1c2ccccc2CC1c1c[nH]c2ccccc12 (stereo unspecified) ?
inactive

Next up: O=C1OC(c2cccc(C(F)(F)F)c2)(c2cccc(C(F)(F)F)c2)c2ccc3ccccc3c21
inactive

Next up: CSc1nc(NCc2ccccc2)c2cnn(COCCO)c2n1
inactive

Next up: O=S(=O)(O)C(CO)c1ccccc1.O=S(=O)(O)Cc1ccccc1 (stereo unspecified)
inactive

Next up: Cc1cccc(C)c1NC(=O)CCc1nnc2s/c(=C\c3ccc(N(C)C)cc3)c(=O)n12
inactive

Next up: C=COC(=O)N1C2CCCC(Cl)(C(C)=O)C1CC2 (stereo unspecified)
inactive

Next up: N#CC1CCCCOCCOCCOCCOCCOCCCCCC1=O (stereo unspecified)
inactive

Next up: N=C1/C(=C/c2ccc(F)cc2)C(=O)N=C2SC=NN12
inactive

Next up: NS(=O)(=O)c1nnc(NC(=O)C23CC4CC(CC(C4)C2)C3)s1
inactive

Next up: CC(=O)Oc1ccc(O)c(O)c1C/C=C(\C)CC/C=C(\C)CC/C=C(\C)CCC=C(C)C
inactive

Next up: O=c1cnn(C2OC(CO)C(O)C(F)C2O)c(=O)[nH]1 (stereo unspecified)
inactive

Next up: O=C1c2cc3c(cc2CC12Cc1cc4c(cc1C2)CCC4)CCC3
inactive

Next up: O=C1CC2C(=O)N(Cc3ccccc3)C1C(S(=O)(=O)c1ccccc1)C2S(=O)(=O)c1ccccc1 (stereo unspecified)
active

Next up: CC1=NN(c2nc(N)nc(/C(C#N)=C\C3COc4ccccc4C3=O)n2)C(C)(C)C1 (stereo unspecified)
inactive

Next up: NC(CSSCC(N)Cc1ccccc1)Cc1ccccc1 (stereo unspecified)
inactive

Next up: COc1cc(C2c3cc4c(cc3OC(Nc3ccccc3)C2C)OCO4)cc(OC)c1OC (stereo unspecified)
active

----------
# System: SK-OV-3
# PROCEDURE_SUMMARY: NCI tumour cell line growth inhibition, 48 h
Calls of active or inactive are those of the source. Cut-off read from the data, not from the text of the source: active = GI50 up to about 1.1 µM and inactive = higher.
Choose the fitting class; nothing outside True = active, False = inactive is accepted.

The following compounds have reported results that may help.
- COMPOUND: "CCCCCCOc1ccc(C(=O)N(C)O)cc1"
  CATEGORY: "False"
- COMPOUND: "O=C(Cc1ccccc1)NN1C(=O)/C(=C\\c2ccccc2O)S/C1=N\\c1ccccc1"
  CATEGORY: "False"
- COMPOUND: "CNC(=O)CCC(NC(=O)OC(C)(C)C)C(=O)NC(Cc1ccc(NC(=O)CCCCC(C)=O)cc1)C(=O)NCC(=O)NC (configuration not stated)"
  CATEGORY: "False"

Alright, here's another compound for you.
Status in this test for CC1(Cl)C(=O)NC(=O)N([C@H]2C[C@H](O)[C@@H](CO)O2)C1N=[N+]=[N-] (some centres not stated) ?
False
